The entries below are paired with their reported protein stability index.
B1: KLHL14 (parent)
chain: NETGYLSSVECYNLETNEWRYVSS

- Variants of: B1
- TEST_METHOD_NOTES: protein stability index of a GFP-peptide fusion (GPS, HEK-293T) (PSI 1-6); higher = more stable;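 further: lentivirally expressed fusions sorted by FACS into six bins by GFP to DsRed ratio, PSI derived from sequencing read proportions per bin multiplied by bin number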
- STATED_CONDITIONS: c terminus: a fixed tail appended
Note: the reply should be a number with no unit written.

// below: answered variants
MUTATION_KEY	MEASURED_NUMBER
Y12P	4.05
G4Y	2.46
S7G	3.47
V22S	2.71
S24P	4.2
C11W	4.03
E15M	2.63
N17I	2.31

Ask | Please supply the value of reported protein stability index for the item `N13F`
Reply | 1.64

Ask | State, in one line, measured protein stability index of `E18V`
Reply | 2.62

Ask | Provide protein stability index value for the following variant: `E2A`
Reply | 2.68
